Target: human H1 receptor (Homo sapiens, UniProt P35367)
Construct: expressed in transfected cells; host or cells: CHO cells
Sequence (P35367 whole entry): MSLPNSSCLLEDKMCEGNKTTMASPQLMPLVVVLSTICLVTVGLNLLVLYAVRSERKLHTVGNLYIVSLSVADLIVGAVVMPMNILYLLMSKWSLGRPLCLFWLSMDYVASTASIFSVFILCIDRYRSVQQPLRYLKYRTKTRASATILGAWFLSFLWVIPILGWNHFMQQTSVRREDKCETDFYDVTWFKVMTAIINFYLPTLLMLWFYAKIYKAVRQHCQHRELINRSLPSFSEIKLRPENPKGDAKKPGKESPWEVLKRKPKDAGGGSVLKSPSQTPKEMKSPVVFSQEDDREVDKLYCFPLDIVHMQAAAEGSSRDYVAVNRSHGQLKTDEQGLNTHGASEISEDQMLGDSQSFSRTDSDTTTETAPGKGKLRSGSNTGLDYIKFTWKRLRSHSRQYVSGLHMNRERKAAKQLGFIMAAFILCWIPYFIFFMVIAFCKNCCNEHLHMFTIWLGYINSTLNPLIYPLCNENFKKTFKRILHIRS
Assay: H1 functional assay (calcium response, CHO cells)
Assay type: cell-based
Details: agonist histamine, 30 min preincubation, Fluo-4NW calcium, read-out: H1 antagonist Kb
Each entry below lists one item and its recorded Kb value.
Please reply with the bare figure in nM and do not write the unit itself.

// worked examples, Kb included
CN1CCN(c2cc(-c3ccc4ccccc4n3)cc(CC3CCOCC3)n2)CC1: 462
COc1ccc(-c2cc(CC3CCOCC3)nc(N3CCNC(C)(C)C3)c2)cc1: 19.4

Turning now to a further compound:
q: Requested field: Kb. Item: `COc1ccc(-c2cc(CC3CCOCC3)nc(N3CCN(C)CC3)c2)c(F)c1`
a: 1230
